Measured TGI, listed per entry for reference.
# Tested on: OVCAR-5 ovarian
# assay_protocol: NCI tumour cell line growth inhibition, 48 h

molecule: O=CN/C=C/c1cc(O)ccc1O
system_tested: OVCAR-5 ovarian
TGI: > 100 µM

molecule: O=S1(=O)c2ccccc2NC(c2ccc3ccccc3c2)CC1c1ccccc1F (stereo not given)
system_tested: OVCAR-5 ovarian
TGI: > 100 µM

molecule: Cc1nc(C(N)=S)sc1/C(CC(=O)C(=O)Nc1cccc2ccc(O)cc12)=N\NC(=O)c1ccncc1
system_tested: OVCAR-5 ovarian
TGI: > 100 µM

molecule: Nc1ccccc1SC(C[N+](=O)[O-])c1ccc2c(c1)OCO2 (stereo not given)
system_tested: OVCAR-5 ovarian
TGI: 9.85 µM

molecule: CCC[C@@H](O)C[C@@H]1CCC[C@H](C[C@@H](O)CC)N1C
system_tested: OVCAR-5 ovarian
TGI: > 100 µM

molecule: O=c1[nH][nH]c(=O)n1Cc1ccccc1Cn1c(=O)[nH][nH]c1=O
system_tested: OVCAR-5 ovarian
TGI: > 100 µM

molecule: CC(C)c1ccc(/C=C2/C=C(c3ccc4ccccc4c3)OC2=O)cc1
system_tested: OVCAR-5 ovarian
TGI: > 100 µM

molecule: CCCCC(=O)OCC(=O)[C@]1(O)Cc2c(O)c3c(c(O)c2[C@@H](OC2CC(NC(=O)C(F)(F)F)C(O)C(C)O2)C1)C(=O)c1c(OC)cccc1C3=O (stereo not given in full)
system_tested: OVCAR-5 ovarian
TGI: 7.49 µM

molecule: C=C(CN1CCN(c2ccc(Cl)cc2F)CC1)c1ccc(C(=O)Nc2ccccc2N)cc1
system_tested: OVCAR-5 ovarian
TGI: > 100 µM

molecule: CCNC(=S)N/N=C/c1cc([N+](=O)[O-])ccc1O
system_tested: OVCAR-5 ovarian
TGI: > 100 µM

molecule: CCCCCN(CCCCC)CC(O)c1cc(C)c2ccc3cc(C(C)C)ccc3c2c1 (stereo not given)
system_tested: OVCAR-5 ovarian
TGI: 3.66 µM

molecule: COc1cc([C@@H]2c3cc4c(cc3[C@@H](Nc3ccc([N+](=O)[O-])cc3C(=O)c3ccccc3)[C@H]3COC(=O)[C@H]23)OCO4)cc(OC)c1OC
system_tested: OVCAR-5 ovarian
TGI: > 100 µM

molecule: CCOC(=O)C1=C(C)NC(=S)NC1c1ccccc1 (stereo not given)
system_tested: OVCAR-5 ovarian
TGI: > 100 µM

molecule: O=C(/C=C/c1ccccc1)NC1C=Nc2ccc(Cl)cc2NC1=O (stereo not given)
system_tested: OVCAR-5 ovarian
TGI: > 100 µM

molecule: CC(C)C/C(CC(=O)CCC(=O)Nc1ccccc1[N+](=O)[O-])=N\NC(=O)c1cc2ccccc2cc1O
system_tested: OVCAR-5 ovarian
TGI: > 100 µM

molecule: COC1(OC)CCC2C1C1CCC(OC)(OC)C21 (stereo not given)
system_tested: OVCAR-5 ovarian
TGI: > 50 µM

molecule: N#CN=C(N(Cc1ccccc1)Cc1ccccc1)N(Cc1ccccc1)Cc1ccccc1
system_tested: OVCAR-5 ovarian
TGI: > 100 µM

molecule: COc1ccc2c(=O)c(O)c(-c3ccc(OC)c(OC)c3)oc2c1
system_tested: OVCAR-5 ovarian
TGI: > 100 µM

molecule: O=C(N/C(=C\c1ccc(/C=C(\NC(=O)c2ccccc2)c2nc3cc([N+](=O)[O-])ccc3[nH]2)cc1)c1nc2cc([N+](=O)[O-])ccc2[nH]1)c1ccccc1
system_tested: OVCAR-5 ovarian
TGI: > 100 µM

molecule: COc1cc([C@@H]2OCC3C(c4ccc5c(c4)OCO5)OCC32)cc(OC)c1OC (stereo not given in full)
system_tested: OVCAR-5 ovarian
TGI: > 100 µM

molecule: COC1=CC(=O)c2nc(-c3ccncc3)[nH]c2C1=O
system_tested: OVCAR-5 ovarian
TGI: > 100 µM

molecule: CCc1ccc(CCN2CCCCC2)nc1
system_tested: OVCAR-5 ovarian
TGI: > 100 µM

molecule: Clc1ccc(/C=C/c2nc3ccccc3s2)cc1Cl
system_tested: OVCAR-5 ovarian
TGI: > 100 µM

molecule: CN1C(=O)C(C)(C)C2(SC(C)(C)C2(C)C)N(C)C1=S (stereo not given)
system_tested: OVCAR-5 ovarian
TGI: > 100 µM

molecule: O=S(=O)(NC1=NCCN1C(=S)SN1CCn2c1nsc2=S)c1ccc(OC(F)(F)F)cc1
system_tested: OVCAR-5 ovarian
TGI: 36.7 µM

molecule: CC(=O)Nc1ccc(-c2nnc(SCC(=O)Nc3ccc([N+](=O)[O-])cc3)o2)cc1
system_tested: OVCAR-5 ovarian
TGI: 36 µM

molecule: [N-]=[N+]=Nc1cc(=O)oc2ccccc12
system_tested: OVCAR-5 ovarian
TGI: > 100 µM

molecule: CCN(CCO)CC1CCCC2CCCCC21 (stereo not given)
system_tested: OVCAR-5 ovarian
TGI: > 100 µM

molecule: Nc1cccc2cc(Cl)cnc12
system_tested: OVCAR-5 ovarian
TGI: > 100 µM

molecule: CNC(=O)C(C)C1CCC2(C)C=CC(=O)C(C)=C2C1O (stereo not given)
system_tested: OVCAR-5 ovarian
TGI: > 100 µM

molecule: C=C(Br)C(C)(Cl)CCC(Br)C(C)(C)Cl (stereo not given)
system_tested: OVCAR-5 ovarian
TGI: > 100 µM

molecule: O=C(Nc1ccccc1OC(F)(F)F)Nc1n[nH]c2ccccc12
system_tested: OVCAR-5 ovarian
TGI: > 100 µM

molecule: N#CC1C(C#N)C2(c3ccccc3)C(c3ccccc3)=NN(c3ccccc3)CC12 (stereo not given)
system_tested: OVCAR-5 ovarian
TGI: > 100 µM

molecule: CN/N=C(/Cc1occc(=O)c1O)C(=O)Nc1ccccc1C
system_tested: OVCAR-5 ovarian
TGI: > 100 µM

molecule: CC1(c2ccc(F)cc2)C(C#N)C(=O)NC(=O)C1C#N (stereo not given)
system_tested: OVCAR-5 ovarian
TGI: > 100 µM

molecule: O=[N+]([O-])C(=C1NCCN1)/C(Cl)=C(\Cl)Br
system_tested: OVCAR-5 ovarian
TGI: > 100 µM

molecule: COC(=O)[C@H]1CO[C@@H](C(C)(C)C)N1C(=O)N1C=CC(=O)C[C@@H]1C
system_tested: OVCAR-5 ovarian
TGI: > 100 µM

molecule: COc1cc(/C=C/C(=N\NS(=O)(=O)c2ccc(C)cc2)c2sc(NNC(C)=O)nc2C)ccc1O
system_tested: OVCAR-5 ovarian
TGI: > 100 µM

molecule: COC1CCC2C(NS(=O)(=O)c3ccc(C)cc3)CCCC2O1 (stereo not given) (tested in a mixture with another compound)
system_tested: OVCAR-5 ovarian
TGI: > 34.5 µM

molecule: O=S1(=O)NC(=NCc2c[nH]c3ccccc23)N(c2ccccc2)c2ccncc21
system_tested: OVCAR-5 ovarian
TGI: > 100 µM

Values from PubChem BioAssay (NCI)
